assay: Antiplatelet aggregatory activity in pig […] assessed as inhibition of platelet-activating factor-induced platelet aggregation; type: functional; settings: Sus scrofa
pIC50: −log10 of the molar value. Square brackets hold non-standard residues; d marks the D form. Peptide text beside a SMILES is read from it. Tic = O=C(O)[C@@H]1Cc2ccccc2CN1
MEASURED ENDPOINT: pIC50

P: N=C(N)NCCC[C@H](N)C(=O)N1Cc2ccccc2C[C@H]1C(=O)O (H-Arg-[Tic]-OH)
Q: NC(=O)CC[C@H](NC(=O)[C@@H]1Cc2ccccc2CN1)C(=O)O (H-[Tic]-Gln-OH)
In terms of reported pIC50, does P or Q have the smaller number? // caller expects the label of the chosen entry
P
(P: 6.29, Q: 6.86)
